- Measured on: human IL-12 receptor (IL-12Rβ1 and IL-12Rβ2) on HEK-Blue IL-12 cells (human, UniProt P42701 24-662; Q99665 24-862)
- Sequence (Q99665 24-862, chain 2 of 2, other chains not shown): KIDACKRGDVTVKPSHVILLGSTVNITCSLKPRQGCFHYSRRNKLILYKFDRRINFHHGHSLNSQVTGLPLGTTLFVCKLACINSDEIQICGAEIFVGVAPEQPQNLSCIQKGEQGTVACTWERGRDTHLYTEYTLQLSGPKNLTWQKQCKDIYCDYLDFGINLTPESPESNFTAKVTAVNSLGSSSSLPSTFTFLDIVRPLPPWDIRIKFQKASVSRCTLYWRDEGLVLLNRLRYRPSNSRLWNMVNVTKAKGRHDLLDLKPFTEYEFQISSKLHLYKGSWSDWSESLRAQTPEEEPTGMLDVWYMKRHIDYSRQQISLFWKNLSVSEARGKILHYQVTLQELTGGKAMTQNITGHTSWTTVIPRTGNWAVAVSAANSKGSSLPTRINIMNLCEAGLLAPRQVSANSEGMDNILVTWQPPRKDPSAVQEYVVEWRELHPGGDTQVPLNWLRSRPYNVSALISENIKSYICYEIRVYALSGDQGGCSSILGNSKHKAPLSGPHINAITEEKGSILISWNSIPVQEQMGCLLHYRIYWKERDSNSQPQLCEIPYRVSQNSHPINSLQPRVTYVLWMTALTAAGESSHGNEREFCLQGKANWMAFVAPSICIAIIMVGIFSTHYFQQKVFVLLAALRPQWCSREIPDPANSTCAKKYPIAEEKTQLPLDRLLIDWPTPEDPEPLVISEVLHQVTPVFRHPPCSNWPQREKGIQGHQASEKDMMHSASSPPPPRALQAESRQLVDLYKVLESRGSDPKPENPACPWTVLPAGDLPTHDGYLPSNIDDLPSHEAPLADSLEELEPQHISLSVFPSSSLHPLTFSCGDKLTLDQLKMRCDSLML
- Protocol details: cell-based or functional assay
Measurement label: Max Absorbance
# answer = number (no unit)

Below: 4 binders and their reported Max Absorbance.
>  <Binder>
DGL587 (bispecific antibody, V domains shown) V domain 1: QVQLVESGGGLVQAGGSLRLSCAASGRTFSSYVMGWFRQAPGQEREFVAAIMRNGIMTYYADSVKGRFTISRDNAKNTVYLQMNTLKPDDTAVYYCAAASRVGVSISQSSSYTSWGQGTQVTVEP V domain 2: QVQLVESGGGLVQPGGSLRLSCAASGFTFSSKAMHWFRQAPGKGLEWVSSINSGGAITYYKDSVKGRFTVSRDNAKNILYLEMNSLKPEDTALYYCATDTDGRTRGQGTQVTVEP

>  <Max Absorbance>
0.32

$$$$
>  <Binder>
DGL584 (bispecific antibody, V domains shown) V domain 1: QVQLQESGGGLVQAGGSLRLSCAASGSIASINAMGWYRQAPGKQRDFVARIQLSGSTNYAHSVRGRFTISRDNAKNTVYLQMNNLKPEDTAVYVCAASNTGSLYGLRNYWGQGTQVTVEP V domain 2: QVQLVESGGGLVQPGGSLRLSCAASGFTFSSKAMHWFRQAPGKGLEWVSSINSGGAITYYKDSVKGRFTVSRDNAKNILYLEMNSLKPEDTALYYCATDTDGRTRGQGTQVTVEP

>  <Max Absorbance>
0.58

$$$$
>  <Binder>
DGL537 (bispecific antibody, V domains shown) V domain 1: QVQLVESGGGLVQAGGSLRLSCLASGRTSNYFMGWFRQAPGKEREFVAAISRSGGGTWYADSVKGRFAISRDNAKNTVNLQMNSLKREDTAVYYCAADRRTGTSVYTVDEYDYWGQGTQVTVEP V domain 2: QVQLVESGGGLVQAGGSLRLSCAASGRIFSAYRMGWFRQAPGKEREFVAGITWRGQTTYYAASVKGRFTISKDNAKKTVYLQMNSLKPEETAVYYCAVETNGLGRWDRPSEYDYWGQGTQVTVEP

>  <Max Absorbance>
0.55

$$$$
>  <Binder>
DGL453 (bispecific antibody, V domains shown) V domain 1: QVQLQESGGALVQPGGSLRLSCVVSGFTSDYFAIGWFRQAPGKEREGVSCIGSSDGSTIYSDSVKGRFTISRDNAKNTVYLQMNSLKPEDTGVYYCALDRGRRTIIGYACYATMKYWGKGTPVTVEP V domain 2: QVQLVESGGGLVQPGGSLRLSCAASGFTFSNYAMSWIRQGPERGFEWVSRINSGGGTTSYADSVKGRFTISRDNAKNTLYLQMNSLKPEDTAVYYCAKHSHPDYSSNYYRPGQGTQVTVEP

>  <Max Absorbance>
0.25

$$$$

The record that follows has no Max Absorbance shown yet.
DGL505 (bispecific antibody, V domains shown) V domain 1: EVQLVESGGGLVQAGGSLRLSCAASGLTFRNYAMAWFRQAPGKEREFVAGITWGGGLTHYVDSVKGRFTISRDNGKNTVYLQMNSLKSEDTAVYYCAGKTQGSTWYHLTPDGYDYWGQGTQVTVEP V domain 2: QVQLVESGGGLVQLGDSLRLSCAASGRGFSSWTMAWFRQALGKRREFVAAITATGARTSSAESEGRFTISRDNAKNMVFLQMNSLKAEDTAVYYCAATGIASWDPGMADKYTYWGQGTQVTVEP has a reported Max Absorbance of 0.26

# credit: patent US20250019450A1
